Target: ER
Test: Scatchard analysis of ligand binding affinity on receptor preparation
Settings: Scatchard analysis at receptor dilutions giving reported Kis and signal:noise ~10; subtype not specified; read-out: KD for [125I]-estradiol

Compound: CC12CCC3c4ccc(O)cc4CCC3C1CC([125I])C2O (stereo not drawn) [[^125I]-estradiol, [^125I]-16α-iodo-3,17β-estradiol]
Kd: 0.1 to 1 nM

---

Target: ER-β (Gen Bank Accession #X99101) (Homo sapiens, UniProt Q92731)
Construct: made in house; host or cells: in vitro transcription/translation, TNT T7 Quick-Coupled reticulocyte lysate (Promega Cat.#L1170)
Sequence (Q92731 54-530 limits assumed): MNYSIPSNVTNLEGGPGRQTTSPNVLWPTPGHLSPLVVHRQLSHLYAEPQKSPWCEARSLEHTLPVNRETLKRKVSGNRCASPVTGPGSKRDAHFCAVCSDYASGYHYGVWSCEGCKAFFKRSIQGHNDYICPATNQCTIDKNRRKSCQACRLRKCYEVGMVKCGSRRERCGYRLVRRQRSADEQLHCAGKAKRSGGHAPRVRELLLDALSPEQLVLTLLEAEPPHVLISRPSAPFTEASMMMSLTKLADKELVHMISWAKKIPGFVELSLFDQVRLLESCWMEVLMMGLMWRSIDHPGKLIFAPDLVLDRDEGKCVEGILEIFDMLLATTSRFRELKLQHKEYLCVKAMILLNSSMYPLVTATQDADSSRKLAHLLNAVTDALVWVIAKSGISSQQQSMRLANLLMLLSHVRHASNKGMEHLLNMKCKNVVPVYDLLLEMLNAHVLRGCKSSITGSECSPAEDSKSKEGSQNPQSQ
Experiment: Estrogen receptor binding, competition with [125I]-estradiol, ER-β
Details: competition with 150 pM [125I]-estradiol; receptor-programmed reticulocyte lysate; overnight at 4° C.; Cheng-Prushoff from IC50; read-out: ER-β Ki
Protocol: The ability of a compound to bind to ER was measured by its ability to compete for binding with the radio-labeled estrogen. […] Receptor-bound and unbound radioligand was separated by filtration over sephadex columns. […] A scintillation cocktail (145 μL) was added to the eluted radioligand/receptor complex, and radio-label was measured by liquid scintillation counting.
pKi: −log10 of the molar value.
Recorded pKi by entry

Compound: O=C1c2c(O)cc(O)cc2CCC1c1ccc(O)cc1 (centres unmarked)
pKi: 8.24

Compound: Cc1cc(O)cc2occ(-c3ccc(O)cc3)c(=O)c12
pKi: 9.30

Compound: O=c1oc2cc(O)cc(O)c2cc1-c1ccc(O)cc1
pKi: 7.10

Compound: O=c1c(-c2ccccc2O)coc2cc(O)cc(O)c12
pKi: 6.96

Compound: O=c1c(-c2ccc(O)c(F)c2)coc2cc(O)cc(O)c12
pKi: 9.30
